Assay: Confirmation assay for measurement of the activity of small molecule inhibitors on Zika virus induced Caspase-3 activity in human iPSC derived neural progenitor cells (hNPCs)
Conditions: hNPC ZIKV-induced caspase-3/7, Caspase-Glo luminescence, 6 h; series mostly up to 46.1 µM
Inconclusive results are not listed. Activity calls are given as the source filed them. The call rests on the fitted dose curve; in most records, active means well fitted inhibition curve with a large enough effect; inconclusive means small, poorly fitted or top-dose-only effect; inactive means no such curve, though single readings can be large or run the other way.
Classes used: yes (active), no (inactive)

> print(dat)
                                    molecule  classname
 1  CC(C)N[C@@H]1CCn2c(=O)[nH]c3cccc(c32)[C@@H]1O         no
 2  COC1(CS(=O)c2ccccc2)CCN(CCc2c[nH]c3ccc(F)cc23)CC1 (stereo not given)         no
 3               O=c1c2ccccc2[se]n1-c1ccccc1        yes
 4  O=S(=O)(CC1CS1)c1ccc(Oc2ccccc2)cc1 (stereo not given)         no
 5       O=C(Nc1ccc(Br)cc1)c1cc(Br)cc(Br)c1O        yes
 6  CC(C)[C@H]1C(=O)N[C@H](CO)Cc2c[nH]c3cccc(c23)N1C         no
 7  CC(C)[N+](C)(CCC(C(N)=O)(c1ccccc1)c1ccccc1)C(C)C         no
 8  O=C1CCC[C@@H]2[C@H]3CCCN4CCC[C@@H](CN12)[C@@H]34         no
 9  CC(O)CN1CCN(CC(=O)[O-])CCN(CC(=O)[O-])CCN(CC(=O)[O-])CC1.[Gd+3] (stereo not given)         no
10  O=C1C=CC[C@@H]2[C@H]3CCCN4CCC[C@@H](CN12)[C@@H]34         no

Hello, the source for this data is PubChem BioAssay AID1224855, in case you need it.
